Just for reference, patent US12492188B2 is where these values come from.

Target: human TLR9 (Homo sapiens, UniProt Q9NR96)
Construct: host or cells: HEK-Blue cells (HEK293-derived reporter line)
Sequence (Q9NR96 26-1032): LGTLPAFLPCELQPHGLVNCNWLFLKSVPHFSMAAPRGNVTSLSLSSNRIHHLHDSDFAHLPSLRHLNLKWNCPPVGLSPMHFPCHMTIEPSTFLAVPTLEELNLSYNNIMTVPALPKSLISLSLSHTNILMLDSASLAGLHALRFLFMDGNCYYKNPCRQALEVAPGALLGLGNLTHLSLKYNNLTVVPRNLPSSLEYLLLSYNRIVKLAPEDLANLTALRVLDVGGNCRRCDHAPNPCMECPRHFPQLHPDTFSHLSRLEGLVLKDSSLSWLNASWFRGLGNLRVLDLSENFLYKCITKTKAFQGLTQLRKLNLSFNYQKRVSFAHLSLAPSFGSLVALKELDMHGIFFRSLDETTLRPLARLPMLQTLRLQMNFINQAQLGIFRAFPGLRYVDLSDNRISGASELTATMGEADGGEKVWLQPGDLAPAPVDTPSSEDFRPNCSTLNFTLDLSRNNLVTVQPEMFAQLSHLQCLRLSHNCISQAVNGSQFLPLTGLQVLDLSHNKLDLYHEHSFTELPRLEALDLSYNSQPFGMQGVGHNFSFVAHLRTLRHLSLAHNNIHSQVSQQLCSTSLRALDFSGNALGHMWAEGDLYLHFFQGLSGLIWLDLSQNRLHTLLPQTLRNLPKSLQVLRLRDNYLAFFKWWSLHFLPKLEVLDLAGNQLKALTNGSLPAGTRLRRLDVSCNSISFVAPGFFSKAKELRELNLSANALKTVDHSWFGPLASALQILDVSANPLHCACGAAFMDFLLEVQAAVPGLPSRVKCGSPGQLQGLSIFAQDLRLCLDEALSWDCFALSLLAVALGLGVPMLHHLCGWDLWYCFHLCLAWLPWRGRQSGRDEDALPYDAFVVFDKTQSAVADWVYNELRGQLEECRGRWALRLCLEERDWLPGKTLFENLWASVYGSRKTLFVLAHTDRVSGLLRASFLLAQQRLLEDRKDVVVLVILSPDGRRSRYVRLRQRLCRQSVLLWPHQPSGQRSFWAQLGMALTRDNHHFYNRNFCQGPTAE
Test: TLR9 inhibition reporter assay (HEK-Blue cells, secreted embryonic alkaline phosphatase reporter)
Format: cell-based
Conditions: HEK-Blue cells overexpressing human TLR9, stimulated with ODN2006 5 nM; read-out: TLR 9 IC50
Source text: TLR7/8/9 Inhibition Reporter Assays HEK-Blue™-cells (Invivogen) overexpressing human TLR7, TLR8 or TLR9 receptors were used for screening inhibitors of these receptors using an inducible SLAP (secreted embryonic alkaline phosphatase) reporter gene under the control of the […] minimal promoter fused to five NF-κB and AP-1-binding sites. […]
pIC50: −log10 of the molar value.
Answer not met if pIC50 is under 7, and met if it is 7 or more.

* COCCN1CCC(N2CCC(c3ccc4c(nc(-c5ccc(S(C)(=O)=O)cc5)n4C)c3F)CC2)CC1 | not met
* COc1ccc(-c2nc3cc(C4CCN(C5CCN(CC(C)C)CC5)CC4)c(C(F)(F)F)cc3[nH]2)cc1OC | not met
* Cc1cc(C2CCN(C3CCN(CC(C)C)CC3)CC2)cc2[nH]c(-c3ccc4cnccc4c3)nc12 | met
* CC(C)N1C2CCC1CC(N1CCC(c3cc(F)c4nc(-c5ccc(S(C)(=O)=O)cc5)n(C)c4c3)CC1)C2 (single isomer, unassigned) [Example 107] | not met
* COc1cc(-c2nc3c(C)cc(C4CCN(C5CCN(CC(C)C)CC5)CC4)cc3[nH]2)cn2ncnc12 [Example 61, tris(2,2,2-trifluoroacetate)] | met

* * *

biological target: human TLR9 (Homo sapiens, UniProt Q9NR96); construct: host or cells: HEK-Blue cells (HEK293-derived reporter line); test: TLR9 inhibition reporter assay (HEK-Blue cells, secreted embryonic alkaline phosphatase reporter); assay type: cell-based; details: HEK-Blue cells overexpressing human TLR9, stimulated with ODN2006 5 nM; read-out: TLR 9 IC50
pIC50: −log10 of the molar value.
Answer n if pIC50 is under 7, and y if it is 7 or more.

• COCCN1CCCC(N2CCC(c3cc(C)c4nc(-c5ccc(S(C)(=O)=O)cc5)n(C)c4c3)CC2)CC1 (single isomer, unassigned) [Example 308] = y
• CC(C)CN1C2CCC1CC(N1CCC(c3cc(F)c4nc(-c5ccc(S(C)(=O)=O)cc5)n(C5CC5)c4c3)CC1)C2 (single isomer, unassigned) [Example 323] = y
• Cn1c(-c2ccc(S(C)(=O)=O)cc2)nc2ccc(C3CCN(C4CCCN(C5CCOCC5)CC4)CC3)c(F)c21 (stereo not drawn) [Example 317] = y
• Cc1cc(C2CCN(C3CCN(CC4CC4)CC3)CC2)cc2c1nc(-c1ccc(S(C)(=O)=O)c(F)c1)n2C = n
• Cc1cc(C2CCN(C3CCN(CC(C)C)CC3)CC2)cc2[nH]c(-c3ccc(OC(F)(F)F)c(Cl)c3)nc12 [Example 73, tris(2,2,2-trifluoroacetate)] = n
• Cc1cc(C2CCN(C3CCCN(C4COC4)CC3)CC2)cc2c1nc(-c1ccc(S(C)(=O)=O)cc1)n2C (stereo not drawn) [Example 304] = n
• COc1cc(-c2nc3c(C)cc(C4CCN(C5CC6CCC(C5)N6CC(C)C)CC4)cc3n2C)cn2ncnc12 (stereo not drawn) = n
• Cn1c(-c2ccc(S(C)(=O)=O)cc2)nc2c(F)cc(C3CCN(C4CC5CCC(C4)N5C4CCC4)CC3)cc21 (single isomer, unassigned) [Example 293] = y
• Cn1c(-c2ccc(S(C)(=O)=O)cc2)nc2cc(F)c(C3CCN(C4CC5CCC(C4)N5C4CCC4)CC3)cc21 (stereo not drawn) [Example 233] = y
• COc1cc(-c2nc3c(C)cc(C4CCN(C5CCN(CC(C)C)CC5)CC4)cc3n2C)cn2ncnc12 = y
• Cc1cc(-c2ccc(CN3CCC(N4CCCC4)CC3)c(F)c2)cc2c1nc(-c1ccc(S(C)(=O)=O)cc1)n2C = y
• COc1ccc(-c2nc3ccc(C4CCN(C5CCN(C6CC6)CC5)CC4)cc3n2C(C)C)cc1OC = n
• Cc1cc(C2CCN(C3CCCN(C4CCC4)CC3)CC2)cc2c1nc(-c1ccc(S(C)(=O)=O)cc1)n2C (stereo not drawn) = y
• CS(=O)(=O)c1ccc(-c2nc3ccc(C4CCN(C5CCN(CC6CC6)CC5)CC4)c(F)c3[nH]2)cc1 = n
• Cn1c(-c2ccc(S(C)(=O)=O)cc2)nc2c(F)c(C3CCN(C4CC5CCC(C4)N5C4CCOCC4)CC3)ccc21 (stereo not drawn) [Example 198] = y
• COc1ccc(-c2nc3ccc(C4CCN(C5CCN(C6CC6)CC5)CC4)cc3n2CC(F)F)cc1OC = n
• Cn1c(-c2ccc(S(C)(=O)=O)cc2)nc2cc(C3CCN(C4CCN(C5CCC5)CC4)CC3)c(F)cc21 = n
• CN(C)C1CCN(Cc2ccc(-c3ccc4nc(-c5ccc(S(C)(=O)=O)cc5)n(C)c4c3)cc2)CC1 = n
• Cc1cc(-c2ccc(N3CCN(C4CCC4)CC3)cc2)cc2c1nc(-c1ccc(S(C)(=O)=O)cc1)n2C = n
• Cn1c(-c2ccc(S(C)(=O)=O)cc2)nc2cc(C3CCN(C4CCN(CC5COC5)CC4)CC3)cc(F)c21 = n
